# target.desc: Phospholipid hydroperoxide glutathione peroxidase GPX4 (Homo sapiens) (UniProt P36969)
# Sequence (P36969 whole entry, looked up): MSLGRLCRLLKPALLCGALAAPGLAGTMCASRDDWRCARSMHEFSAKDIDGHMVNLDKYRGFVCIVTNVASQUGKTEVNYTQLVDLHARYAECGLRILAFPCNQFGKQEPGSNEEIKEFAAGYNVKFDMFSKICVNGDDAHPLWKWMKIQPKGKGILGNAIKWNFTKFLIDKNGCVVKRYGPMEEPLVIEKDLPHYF
# assay.details: Primary qHTS Assay for Inhibitors of Recombinant Selenoprotein Glutathione Peroxidase 4 (GPX4) (AID 1845192); further: nearly all actives have a fitted effect of over 65% in size
# measurement.setup: recombinant GPX4, GR-coupled NADPH fluorescence, 15 min; series mostly up to 27.8 µM
Results filed as inconclusive are left out. Activity calls are given as the source filed them. The call rests on the fitted dose curve; in most records, active means well fitted inhibition curve with a large enough effect; inconclusive means small, poorly fitted or top-dose-only effect; inactive means flat fitted curve, though single readings scatter.
measured.parameter: activity change, negative = inhibition

C/C=C/C(=O)OC1/C=C/C(O)C(OC(C)=O)CCC(=O)OC1C (stereo not given) = inactive
Cc1ccc(COC(=O)N2CC[C@@H](CNc3ncccn3)[C@@H](F)C2)cc1 = inactive
CC1CCCCCCCc2cc(O)cc(O)c2C(=O)O1 (stereo not given) = inactive
O=C(/C=C/C=C/c1ccc2c(c1)OCO2)N1CCCCC1 = inactive
COc1cc(/C=C/C(=O)O[C@H]2C[C@@H]3C(C(=O)O)=CO[C@@H](O[C@@H]4O[C@H](CO)[C@@H](O)[C@H](O)[C@H]4O)[C@@H]3[C@H]2C)ccc1O = inactive
CC1(C)CC[C@]2(C(=O)O[C@@H]3O[C@H](CO[C@@H]4O[C@H](CO)[C@@H](O)[C@H](O)[C@H]4O)[C@@H](O)[C@H](O[C@@H]4O[C@H](CO)[C@@H](O)[C@H](O)[C@H]4O)[C@H]3O)CC[C@]3(C)C(=CCC4[C@@]5(C)CC[C@H](O[C@@H]6OC[C@@H](O)[C@H](O)[C@H]6O)[C@@](C)(C(=O)O)C5CC[C@]43C)[C@@H]2C1 (stereo not given in full) = inactive
CCOc1ccc(-c2cc(NC(=O)c3c(F)cccc3F)c(C(=O)O)s2)cc1 = inactive
CC(NC(=O)[C@H](Cc1ccccc1)NC(=O)OCc1ccccc1)C(=O)CF (stereo not given in full) = inactive

Tell me reported activity change, negative = inhibition for O=C(O)c1ccnc(-c2cc(C(=O)NCCc3ccccc3)ccn2)c1 , tested with Phospholipid hydroperoxide glutathione peroxidase GPX4 (Homo sapiens) (UniProt P36969).
inactive

Likewise for O=C(O)CCc1ccc(NCc2cccc3c2CCCN3CCOc2ccccc2)cc1F ?
inactive

Now consider CCC(C)C(=O)O[C@H]1C[C@](C)(O)[C@]23OC(C)(C)[C@H](C[C@H](OC(=O)c4ccccc4)[C@]2(COC(C)=O)[C@H]1OC(=O)C(C)CC)[C@H]3OC(C)=O (stereo not given in full) and answer again.
inactive

Record: CC(=O)O[C@H]1C[C@@H](O)C(C)(C)C2C[C@@H](OC(C)=O)[C@]3(C)C(CC[C@@]4(C)[C@H](c5ccoc5)OC(=O)[C@H]5O[C@]543)[C@]21C (stereo not given in full)
inactive

Please do the same for COc1ccc(NC(=O)c2ccc(-c3ccc(C(N)=O)cc3C)cc2)cc1N1CCN(C)CC1 as well.
inactive

Follow-up item: O=C(OC[C@H]1O[C@H](O[C@H]2CO[C@H](CO)[C@@H](O)[C@@H]2O)[C@H](O)[C@@H](O)[C@H]1O)c1ccccc1
inactive

Similarly, C/C=C(/C)C(=O)O[C@@H]1C[C@@H](OC(=O)/C(C)=C\C)[C@@]2(C)C3C(=O)C=C(C)C2C3C1(C)C ?
inactive

====

# Test system: Zika virus NS2B-NS3 protease (unlinked complex)
# assay.details: Primary screen GU Rhodamine qHTS for Zika virus inhibitors: Unlinked NS2B-NS3 protease assay (AID 1347159); further: nearly all actives have a fitted effect of over 60% in size; further: potency means the concentration at half of the fitted maximal effect
# measurement.setup: Recombinant ZIKV NS2B-NS3 protease, Rhodamine110 substrate fluorescence; series mostly up to 107 µM
Results filed as inconclusive are left out. Active and inactive are the calls of the source. The call rests on the fitted dose curve; in most records, active means well fitted inhibition curve with a large enough effect; inconclusive means small, poorly fitted or top-dose-only effect; inactive means no such curve, though single readings can be large or run the other way.
measured.parameter: Potency

C=CC(C)(O)CC/C=C(\C)COC1O[C@H](CO)[C@@H](O)[C@H](O)[C@H]1O (some centres undefined) = 12.6 µM (active)
CC1(C)CC[C@]2(C(=O)O)CC[C@]3(C)C(=CCC4[C@@]5(C)CC[C@H](O[C@@H]6O[C@H](C(=O)O)[C@@H](O)[C@H](O[C@@H]7O[C@H](CO)[C@H](O)[C@H](O)[C@H]7O)[C@H]6O[C@@H]6O[C@H](CO)[C@@H](O)[C@H](O)[C@H]6O)C(C)(C)C5CC[C@]43C)[C@@H]2C1 (some centres undefined) = 5.62 µM (active)
C=C(COC(=O)C(C)C)C1Oc2cc(C(C)=O)ccc2C1OC(=O)C(C)C (centres undefined) = inactive
COc1c2cc(c(O)c1OC)CCCCC(O)CCc1ccc(O)c-2c1 (centres undefined) = inactive
